experimental-protocol: Cmax in human
Assay type: ADME, organism-based
details: in vivo
attribute-measured: Cmax

Guide cases for Cmax, answers given:
INSERT INTO assay_data (compound, attribute_measured, value_measured) VALUES
  ('CC(C)c1nc(N(C)S(C)(=O)=O)nc(-c2ccc(F)cc2)c1/C=C/[C@@H](O)C[C@@H](O)CC(=O)O [ROSUVASTATIN]', 'Cmax', '75 nM'),
  ('CCC(C)(C)C(=O)O[C@H]1C[C@@H](C)C=C2C=C[C@H](C)[C@H](CC[C@@H]3C[C@@H](O)CC(=O)O3)[C@H]21 [SIMVASTATIN]', 'Cmax', '120 nM'),
  ('COCc1c(C(C)C)nc(C(C)C)c(/C=C/[C@@H](O)C[C@@H](O)CC(=O)O)c1-c1ccc(F)cc1 [CERIVASTATIN]', 'Cmax', '25 nM');

Form: compound = CC[C@H](C)C(=O)O[C@H]1C[C@H](O)C=C2C=C[C@H](C)[C@H](CC[C@@H](O)C[C@@H](O)CC(=O)O)[C@H]21 [PRAVASTATIN] ; Cmax = 100 nM
